test-context: in dichloromethane, 273.15 K
quantity: solubility (mole fraction)

Task: If you can, please state the reported solubility (mole fraction) value of CCOc1ncc(C)c2c1[C@H](c1ccc(C#N)cc1OC)C(C(N)=O)=C(C)N2 .
Result: 0.0047

====

test-context: in acetonitrile, 308.15 K
quantity: solubility (mole fraction)
Please respond with just the number, no unit label.

Task: If you can, please state the reported solubility (mole fraction) value of CCOc1ncc(C)c2c1[C@H](c1ccc(C#N)cc1OC)C(C(N)=O)=C(C)N2 .
Result: 0.00217

====

test-context: in ethanol, 278.15 K
quantity: solubility (mole fraction)
Please respond with just the number, no unit label.

Task: If you can, please state the reported solubility (mole fraction) value of CCOc1ncc(C)c2c1[C@H](c1ccc(C#N)cc1OC)C(C(N)=O)=C(C)N2 .
Result: 0.00115

====

test-context: in ethanol, 298.15 K
quantity: solubility (mole fraction)
Please respond with just the number, no unit label.

Task: If you can, please state the reported solubility (mole fraction) value of CCOc1ncc(C)c2c1[C@H](c1ccc(C#N)cc1OC)C(C(N)=O)=C(C)N2 .
Result: 0.00206

====

test-context: in isopropyl acetate, 288.15 K
quantity: solubility (mole fraction)
Please respond with just the number, no unit label.

Task: If you can, please state the reported solubility (mole fraction) value of CCOc1ncc(C)c2c1[C@H](c1ccc(C#N)cc1OC)C(C(N)=O)=C(C)N2 .
Result: 0.000647

====

test-context: in 2-butanone, 278.15 K
quantity: solubility (mole fraction)
Please respond with just the number, no unit label.

Task: If you can, please state the reported solubility (mole fraction) value of CCOc1ncc(C)c2c1[C@H](c1ccc(C#N)cc1OC)C(C(N)=O)=C(C)N2 .
Result: 0.00347

====

test-context: in isopropanol, 288.15 K
quantity: solubility (mole fraction)
Please respond with just the number, no unit label.

Task: If you can, please state the reported solubility (mole fraction) value of CCOc1ncc(C)c2c1[C@H](c1ccc(C#N)cc1OC)C(C(N)=O)=C(C)N2 .
Result: 0.000554

====

test-context: in ethanol, 293.15 K
quantity: solubility (mole fraction)
Please respond with just the number, no unit label.

Task: If you can, please state the reported solubility (mole fraction) value of CCOc1ncc(C)c2c1[C@H](c1ccc(C#N)cc1OC)C(C(N)=O)=C(C)N2 .
Result: 0.00182

====

test-context: in methyl acetate, 313.15 K
quantity: solubility (mole fraction)
Please respond with just the number, no unit label.

Task: If you can, please state the reported solubility (mole fraction) value of CCOc1ncc(C)c2c1[C@H](c1ccc(C#N)cc1OC)C(C(N)=O)=C(C)N2 .
Result: 0.00248

====

test-context: in acetone, 298.15 K
quantity: solubility (mole fraction)
Please respond with just the number, no unit label.

Task: If you can, please state the reported solubility (mole fraction) value of CCOc1ncc(C)c2c1[C@H](c1ccc(C#N)cc1OC)C(C(N)=O)=C(C)N2 .
Result: 0.00577

====

test-context: in ethanol, 273.15 K
quantity: solubility (mole fraction)
Please respond with just the number, no unit label.

Task: If you can, please state the reported solubility (mole fraction) value of CCOc1ncc(C)c2c1[C@H](c1ccc(C#N)cc1OC)C(C(N)=O)=C(C)N2 .
Result: 0.000949

====

test-context: in ethyl acetate, 313.15 K
quantity: solubility (mole fraction)
Please respond with just the number, no unit label.

Task: If you can, please state the reported solubility (mole fraction) value of CCOc1ncc(C)c2c1[C@H](c1ccc(C#N)cc1OC)C(C(N)=O)=C(C)N2 .
Result: 0.00225
